EXPERIMENTAL TARGET: Human HIF-PHD2 (Homo sapiens)
Construct: FLAG-tagged full length PHD2 expressed in and purified from baculovirus-infected Sf9 cells; FLAG; made in house; host or cells: baculovirus-infected Sf9 cells
Sequence (Q9GZT9 whole entry): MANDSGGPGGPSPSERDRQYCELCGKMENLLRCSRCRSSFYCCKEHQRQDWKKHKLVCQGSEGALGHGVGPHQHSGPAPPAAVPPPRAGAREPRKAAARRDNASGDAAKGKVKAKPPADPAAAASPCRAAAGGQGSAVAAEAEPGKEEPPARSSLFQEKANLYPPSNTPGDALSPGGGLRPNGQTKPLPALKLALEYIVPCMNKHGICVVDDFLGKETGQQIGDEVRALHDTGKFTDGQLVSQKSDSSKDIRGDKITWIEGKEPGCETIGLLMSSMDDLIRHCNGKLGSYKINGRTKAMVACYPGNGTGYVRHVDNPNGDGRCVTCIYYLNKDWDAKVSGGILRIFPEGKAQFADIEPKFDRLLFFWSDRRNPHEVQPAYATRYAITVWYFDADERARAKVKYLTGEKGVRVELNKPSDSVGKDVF
PROTOCOL DETAILS: Inhibition of the hydroxylation of a HIF peptide by PHD2 (time resolved fluorescence, 384-well)
Format: biochemical
RUN CONDITIONS: FLAG-tagged full length PHD2; 0.2 μM 2-oxoglutarate, 0.5 μM HIF-1α peptide; 45 minutes at room temperature; read-out: Human HIF-PHD2 IC50
Method: To each well of a 384-well plate, 1 μL of test compounds in DMSO (final concentration ranging from 0.3 nM to 10 uM) were added into 20 μl of assay buffer (50 mM Tris pH 7.4/0.01% Tween-20/0.1 mg/ml bovine serum albumin/10 μM ferrous sulfate/1 mM sodium ascorbate/20 μg/ml catalase) containing 0.15 μg/ml FLAG-tagged full length PHD2 expressed in and purified from baculovirus-infected Sf9 cells. […]
pIC50: −log10 of the molar value.
Catalogue of pIC50 readings, one per entry.

COMPOUND	pIC50
O=C(O)CNC(=O)c1c(O)c2ccc(Br)c3c2n(c1=O)C(Cc1ccc(C(F)(F)F)cc1)CO3 (stereo not shown)	8.24
O=C(O)CNC(=O)c1c(O)c2cc(Br)cc3c2n(c1=O)CC(c1ccc(C(F)(F)F)cc1)O3 (stereo not shown)	8.36
O=C(O)CNC(=O)c1c(O)c2cccc3c2n(c1=O)C(c1ccccc1)CC3 (single isomer, unassigned)	7.74
O=C(O)CNC(=O)c1c(O)c2ccc(Cl)c3c2n(c1=O)CC(c1ccc(C(F)(F)F)cc1)O3 (single isomer, unassigned)	8.59
